Tested on: HT-29 (colon)
method: MTT cytotoxicity assay, 72 hours (Example 13)
Format: cell-based, human
conditions: HT29, 10 nM
Non-standard residues stand in square brackets, D forms with d. Residues, ends and D or L forms follow the SMILES beside them. Aib = CC(C)(N)C(=O)O
measured quantity: Percent Cytotoxicity (%)
Report the figure in % without appending any unit label.

CC(C)C[C@H](NC(=O)[C@H](Cc1c[nH]cn1)NC(=O)C(C)(C)NC(=O)[C@@H](NC(=O)[C@H](C)NC(=O)[C@@H](Cc1c[nH]c2ccccc12)NC(=O)[C@H](CCC(N)=O)NC(=O)[C@H](N)Cc1ccccc1)C(C)C)C(N)=O [SEQ ID: 5, D-Phe-Gln-D-Trp-Ala-Val-Aib-His-Leu-NH2] (H-[dF]Q[dW]AV[Aib]HL-NH2; N-terminus assumed)	44.4
CC(C)C[C@H](NC(=O)[C@H](Cc1c[nH]cn1)NC(=O)CNC(=O)[C@@H](NC(=O)C(C)(C)NC(=O)[C@H](Cc1c[nH]c2ccccc12)NC(=O)[C@H](CCC(N)=O)NC(=O)[C@H](N)Cc1ccccc1)C(C)C)C(N)=O [SEQ ID: 4, D-Phe-Gln-Trp-Aib-Val-Gly-His-Leu-NH2] (H-[dF]QW[Aib]VGHL-NH2; N-terminus assumed)	38.9
CCCC(CCC)(NC(=O)[C@@H](NC(=O)[C@H](C)NC(=O)[C@@H](Cc1c[nH]c2ccccc12)NC(=O)[C@H](CCC(N)=O)NC(=O)[C@H](N)Cc1ccccc1)C(C)C)C(=O)N[C@@H](Cc1c[nH]cn1)C(=O)N[C@@H](CC(C)C)C(N)=O	18.9
CC[C@H](C)[C@H](NC(=O)[C@H](Cc1c[nH]cn1)NC(=O)CNC(=O)[C@@H](NC(=O)C(C)(C)NC(=O)[C@H](Cc1c[nH]c2ccccc12)NC(=O)[C@H](CCC(N)=O)NC(=O)[C@H](N)Cc1ccccc1)C(C)C)C(N)=O [SEQ ID: 6, D-Phe-Gln-Trp-Aib-Val-Gly-His-Ile-NH2] (H-[dF]QW[Aib]VGHI-NH2; N-terminus assumed)	6.8

Proceed to the following item.
Per the records, this compound ( CC[C@H](C)[C@H](NC(=O)[C@H](Cc1c[nH]cn1)NC(=O)C(C)(C)NC(=O)[C@@H](NC(=O)[C@H](C)NC(=O)[C@H](Cc1c[nH]c2ccccc12)NC(=O)[C@H](CCC(N)=O)NC(=O)[C@H](N)Cc1ccccc1)C(C)C)C(N)=O [SEQ ID: 7, D-Phe-Gln-Trp-Ala-Val-Aib-His-Ile-NH2] (H-[dF]QWAV[Aib]HI-NH2; N-terminus assumed) ) has Percent Cytotoxicity equal to 28.2
